# System: PXR homodimer (NR concentration 270 nM)
# experiment_description: PBM binding z-score (relative to random genomic background probes); higher = stronger binding; sequences stand for … in GC…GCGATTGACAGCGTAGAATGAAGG
Class field: derived from PBM binding z-score; ranges low (below 0.03), middle (0.03 to below 0.6), high (0.6 or more)

{"primary_sequence": "GCTGCTAGGTCAGGTTCGTCAGCTAACGGGTACG", "class_name": "low"}
{"primary_sequence": "TCGAGTAGGCTAGTCGGGGCATTCAGCCAACATA", "class_name": "low"}
{"primary_sequence": "ACTTTTAGTTGACTTAGGGCAACCGATACGACGC", "class_name": "middle"}
{"primary_sequence": "CGAACGAGGTCAAGGACAGTGAATCTCCGCACGC", "class_name": "high"}
{"primary_sequence": "TATACAGGGTAAAAGGCCAGAGTACGAATGTCGA", "class_name": "middle"}
{"primary_sequence": "AGAACGAGGACACGCTGAGTTGATAGCAGAGTAG", "class_name": "middle"}
{"primary_sequence": "AGTCAAAGTTCACTAGGTAACTTAAGATTCAGCT", "class_name": "high"}
{"primary_sequence": "AGAACGAGGGCAATGTGTTGATAGCACGGGTGGC", "class_name": "middle"}
{"primary_sequence": "CGTCCAAGGCCAATGCTAGGTCAGTGAAAGCATT", "class_name": "low"}
{"primary_sequence": "GCCGACAGGTGAAACGCAGGTAACTCAGGGTGGC", "class_name": "low"}
{"primary_sequence": "CCTGCTAAGTCATGGTCAGCTAATCTACAGTATG", "class_name": "low"}
{"primary_sequence": "CCTAGCAGGCCAGGGCCACTCAAGCATTTCGCTT", "class_name": "low"}
{"primary_sequence": "TGAATGAGGTTAAAGATCAGGGTACGTGGCGTCG", "class_name": "low"}
{"primary_sequence": "GTACAAAGGTGAATAGGTCGTTGATGAGTAGGCG", "class_name": "middle"}
{"primary_sequence": "CGTCCAAAGTCAGAGAGGTCAGTGAATGCCGAGT", "class_name": "high"}
{"primary_sequence": "CCTTACGGGTCAAAGTTATAGCACGGGTGGTACG", "class_name": "middle"}
{"primary_sequence": "GGAACGAGGGGATTCGAGTTGATAGCATGGCGAT", "class_name": "low"}
{"primary_sequence": "GCTTGTAGTTCAAGGTTAAGAAAGACTAAGCTAA", "class_name": "high"}
{"primary_sequence": "AAACCAAGGTGATCGTGAGGTCGTTGATACTAAC", "class_name": "high"}
{"primary_sequence": "ACTATTAGTTGACTTAGGGGAACCGATACGACGC", "class_name": "high"}
{"primary_sequence": "CCTAGTTGGTAAAGGTCACACACGCTATAGGTAC", "class_name": "high"}
{"primary_sequence": "GATACAGGGTCAAGGCCAAAGTACGCGTATTGAT", "class_name": "high"}
{"primary_sequence": "GATATTAGTTGAAAGGGCAACCGAATGATTCTCG", "class_name": "high"}
{"primary_sequence": "GCGACTGGGGCATCGGCAGGTTACCATAACTTAA", "class_name": "low"}
{"primary_sequence": "CGTCAAAGTTCAACTAAGGTAAAGTAAAGCACGC", "class_name": "high"}
{"primary_sequence": "TCATATACGTAAAGGTGAAAGTCGAACGATATGA", "class_name": "low"}
{"primary_sequence": "ATATATAGGTTACATCCGGGTCATTCAGGCTATG", "class_name": "high"}
{"primary_sequence": "ATCTCTAGGTAAAGATCAGTGAAAGATCGATAGA", "class_name": "middle"}
{"primary_sequence": "ATATGTAGGTTAGCTGGGGTCATTTAGACTAGGC", "class_name": "high"}
{"primary_sequence": "TCTAGTTGGTCACGGCGGTCACACACGACGGGTA", "class_name": "middle"}
{"primary_sequence": "ATACCAAGGTGATCGTGAGGTAGTTGATACTAAC", "class_name": "middle"}
{"primary_sequence": "AGAACGGGGGCACGCTGAGTTGATAGCAGAGTAG", "class_name": "high"}
{"primary_sequence": "ATCGAAAGTTCGAGGTGAGTATAGAGAAAGGGAA", "class_name": "middle"}
{"primary_sequence": "TCAGACGGGTGAAGGTAACTCAGGTACGCAGTCG", "class_name": "low"}
{"primary_sequence": "CCTTACGGGTCACTCCTGGTTATAGCATCGGAGT", "class_name": "low"}
{"primary_sequence": "AGAACGAGGGCACGCTGAGTTGATAACAGAGTAG", "class_name": "low"}
{"primary_sequence": "CCTACTGGACCACGAAAGGTCATTGATTCAGTGA", "class_name": "high"}
{"primary_sequence": "GCGACTGGGGCAAACCAGGTTACCATAAGGTTGG", "class_name": "low"}
{"primary_sequence": "TGAATGAGGTTAAAGATCAGGCAACGTGGCGTCG", "class_name": "middle"}
{"primary_sequence": "CCGAGTAGGTTATGGGGAATTCAGGCAACGGTGA", "class_name": "middle"}
{"primary_sequence": "CCCGACAGGTGAAAGGTAACTCAGTCTGGTACGC", "class_name": "low"}
{"primary_sequence": "TCATATAGGTTAATGCTAGGTGAAAGTCCGATCT", "class_name": "middle"}
{"primary_sequence": "GCAGACAGGAGAAACGCAGGTAACTCAGGGTGGC", "class_name": "low"}
{"primary_sequence": "CGTACAAGGTCAAGGTCAGTGAAAGAGACTCGAA", "class_name": "high"}
